tgt: Human LPA1 (Homo sapiens, UniProt Q92633)
Construct: the full-length cDNA for human LPA1 was obtained by PCR of the reverse transcription reaction
Sequence (Q92633 whole entry): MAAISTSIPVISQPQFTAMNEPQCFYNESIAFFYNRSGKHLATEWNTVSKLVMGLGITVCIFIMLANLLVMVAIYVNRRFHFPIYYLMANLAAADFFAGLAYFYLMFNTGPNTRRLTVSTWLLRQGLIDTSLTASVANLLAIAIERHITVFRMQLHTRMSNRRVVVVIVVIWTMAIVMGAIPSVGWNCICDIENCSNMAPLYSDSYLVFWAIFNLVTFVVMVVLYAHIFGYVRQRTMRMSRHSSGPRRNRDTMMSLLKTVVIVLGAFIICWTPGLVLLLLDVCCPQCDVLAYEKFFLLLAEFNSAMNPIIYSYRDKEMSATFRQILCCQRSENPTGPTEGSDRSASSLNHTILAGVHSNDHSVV
protocol.text: LPA1 calcium flux assay
protocol.conditions: CHO cells expressing human LPA1, stimulated with 10 nM LPA; read-out: LPA1 Ca^2+ flux
observable: IC50

Field: example entries. Status: answers known.
O=C(O)CC1(c2ccc(-c3ccc(-c4ccsc4C(O)CCCc4ccccc4)cc3)cc2)CC1 (centres unmarked)    < 300 nM
CC(OC(=O)Nc1ccncc1-c1ccc(-c2ccc(C3(C(=O)O)CC3)cc2)cc1)c1ccccc1Cl (centres unmarked)    < 300 nM
CCn1ncc(-c2ccc(-c3ccc(C4(C(=O)O)CC4)cc3)cc2)c1C(O)CCCc1ccccc1 (centres unmarked)    < 300 nM

Batch request: IC50 for each of the following compounds.
1. O=C(O)C1(c2ccc(-c3ccc(-c4ncc5ccccc5c4C(O)CCCc4ccccc4)cc3)cc2)CC1 (centres unmarked)
2. O=C(O)CC1(c2ccc(-c3ccc(-c4cscc4C(O)CCCc4ccccc4)cc3)cc2)CC1 (centres unmarked)
3. C[C@@H](OC(=O)Nc1ccccc1-c1ccc(-c2ccc(C3(C(=O)O)CC3)cc2)cc1)c1ccccc1

1000 to 10000 nM
< 300 nM
< 300 nM

Batch request: IC50 for each of the following compounds.
1. C[C@@H](OC(=O)Nc1cnccc1-c1ccc(-c2ccc(C3(C(=O)O)CC3)cc2)cc1)c1ccccc1
2. O=C(O)C1(c2ccc(-c3ccc(-c4sccc4C(O)CCCc4ccccc4)cc3)cc2)CC1 (single isomer, unassigned) [Compound 1-27]

1: 300 to 1000 nM; 2: < 300 nM
